Listed here: items and their measured pKd.
Target: T1, human BACE1 ECD
T1 construct: analyte of the Octet assay (200 nM) and enzyme of the first short substrate assay; also called human BACE1 extracellular domain
T1 sequence (single chain, as listed by the source limits assumed): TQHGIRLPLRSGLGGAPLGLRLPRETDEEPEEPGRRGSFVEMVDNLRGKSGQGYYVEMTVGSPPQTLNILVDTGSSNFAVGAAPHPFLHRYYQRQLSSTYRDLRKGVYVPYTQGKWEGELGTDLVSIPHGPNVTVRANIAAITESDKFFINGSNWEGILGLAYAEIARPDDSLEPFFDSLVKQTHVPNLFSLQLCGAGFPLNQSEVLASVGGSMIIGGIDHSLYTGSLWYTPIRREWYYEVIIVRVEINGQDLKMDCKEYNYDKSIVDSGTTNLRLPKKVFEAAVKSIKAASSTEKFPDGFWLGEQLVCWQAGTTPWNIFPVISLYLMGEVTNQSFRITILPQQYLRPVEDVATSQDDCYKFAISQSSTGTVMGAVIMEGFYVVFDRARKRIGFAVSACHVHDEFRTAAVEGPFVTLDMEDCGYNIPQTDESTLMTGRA
Assay: Octet, pH 7.5;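 also: antibodies captured on anti-human capture biosensor tips, dissociation followed in PBS with BSA buffer, kinetics fitted with a one-to-one binding model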
Worth noting: pKd values are minus log10 of concentrations stated in mol/L.

Some binders with recorded pKd:
5887 (antibody, V domains shown, anti-BACE1 IgG) VH: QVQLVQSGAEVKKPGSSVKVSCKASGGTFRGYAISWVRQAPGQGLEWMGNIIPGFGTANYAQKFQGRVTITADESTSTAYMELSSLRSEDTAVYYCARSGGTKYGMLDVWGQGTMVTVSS VL: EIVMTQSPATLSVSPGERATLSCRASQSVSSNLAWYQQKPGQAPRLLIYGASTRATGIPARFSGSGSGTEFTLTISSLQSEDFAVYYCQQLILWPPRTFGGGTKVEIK yielded pKd of 8.96

5881 (antibody, V domains shown, anti-BACE1 IgG) VH: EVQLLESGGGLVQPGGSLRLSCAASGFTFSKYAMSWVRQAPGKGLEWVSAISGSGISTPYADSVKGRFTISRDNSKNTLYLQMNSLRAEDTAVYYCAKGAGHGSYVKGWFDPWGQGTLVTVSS VL: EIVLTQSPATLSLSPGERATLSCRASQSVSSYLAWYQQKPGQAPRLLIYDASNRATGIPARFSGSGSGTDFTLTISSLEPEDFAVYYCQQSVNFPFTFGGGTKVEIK yielded pKd of 8.59

5571 (antibody, V domains shown, anti-BACE1 IgG) VH: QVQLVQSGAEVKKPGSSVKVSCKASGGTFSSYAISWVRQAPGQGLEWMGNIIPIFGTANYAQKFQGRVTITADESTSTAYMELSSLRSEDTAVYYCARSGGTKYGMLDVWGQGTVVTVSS VL: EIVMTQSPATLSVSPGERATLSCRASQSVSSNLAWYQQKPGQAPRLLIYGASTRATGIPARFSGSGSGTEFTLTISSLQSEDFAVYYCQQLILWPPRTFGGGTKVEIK yielded pKd of 8.30

***
5884 (antibody, V domains shown, anti-BACE1 IgG) VH: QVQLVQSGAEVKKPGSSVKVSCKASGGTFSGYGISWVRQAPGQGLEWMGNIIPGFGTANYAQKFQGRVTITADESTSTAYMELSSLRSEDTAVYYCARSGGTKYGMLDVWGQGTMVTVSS VL: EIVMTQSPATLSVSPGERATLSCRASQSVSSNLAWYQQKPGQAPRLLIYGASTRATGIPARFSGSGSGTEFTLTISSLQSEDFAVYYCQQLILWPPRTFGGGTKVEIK yielded pKd of 9.04

5876 (antibody, V domains shown, anti-BACE1 IgG) VH: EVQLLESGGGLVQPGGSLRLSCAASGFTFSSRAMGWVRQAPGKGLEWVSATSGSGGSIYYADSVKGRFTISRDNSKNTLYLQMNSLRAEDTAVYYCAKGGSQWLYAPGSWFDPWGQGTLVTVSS VL: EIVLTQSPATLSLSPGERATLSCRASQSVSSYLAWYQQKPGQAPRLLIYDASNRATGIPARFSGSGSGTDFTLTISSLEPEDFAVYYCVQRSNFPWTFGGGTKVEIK yielded pKd of 8.03

5874 (antibody, V domains shown, anti-BACE1 IgG) VH: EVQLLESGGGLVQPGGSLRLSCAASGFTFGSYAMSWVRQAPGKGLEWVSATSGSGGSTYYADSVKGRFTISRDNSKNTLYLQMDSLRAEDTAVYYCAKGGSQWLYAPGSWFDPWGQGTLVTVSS VL: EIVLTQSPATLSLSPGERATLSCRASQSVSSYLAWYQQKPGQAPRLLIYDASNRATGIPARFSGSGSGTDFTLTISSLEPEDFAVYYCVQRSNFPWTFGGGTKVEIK yielded pKd of 7.48
